The reader will find reported log10 IC50 values listed item by item below.
assay.target: Mcl-1 protein (UniProtKB primary accession number: Q07820) (Homo sapiens, UniProt Q07820)
Sequence (Q07820 whole entry): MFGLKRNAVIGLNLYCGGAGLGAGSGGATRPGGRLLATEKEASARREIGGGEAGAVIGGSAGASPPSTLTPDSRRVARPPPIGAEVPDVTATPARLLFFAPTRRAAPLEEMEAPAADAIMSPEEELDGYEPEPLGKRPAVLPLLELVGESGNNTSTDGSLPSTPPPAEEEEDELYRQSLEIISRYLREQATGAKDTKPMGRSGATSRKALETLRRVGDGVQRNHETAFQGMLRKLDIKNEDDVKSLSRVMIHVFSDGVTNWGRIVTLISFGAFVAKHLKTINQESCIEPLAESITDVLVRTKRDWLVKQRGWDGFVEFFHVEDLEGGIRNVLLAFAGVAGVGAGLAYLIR
assay.notes: Inhibition of Mcl-1 by fluorescence polarisation, Method 1
Type: binding
condition.set: fluorescence polarisation test; Method 2 values are underlined in the patent (underlining not visible here); read-out: IC50 (M) Mcl-1 FP
measure: log10 IC50 (log10 of the value in M)

compound	log10 IC50
CCCCCn1nccc1C(C)Oc1ccccc1CC(Oc1ncnc2sc(-c3ccc(F)cc3)c(-c3ccc(OCCN4CCN(C)CC4)c(Cl)c3C)c12)C(=O)O (single isomer, unassigned) [Example 5]	-8.21
COc1ccccc1-c1nccc(COc2ccccc2CC(Oc2ncnc3sc(-c4ccc(F)cc4)c(-c4ccc(OCCN(C)C)c(Cl)c4C)c23)C(=O)O)n1 (stereo not drawn) [Example 135]	-8.07
Cc1c(-c2c(-c3ccc(F)o3)sc3ncnc(OC(Cc4ccccc4OCC(F)(F)F)C(=O)O)c23)ccc(OCCN(C)C)c1Cl (stereo not drawn) [Example 200]	-8.21
Cc1c(-c2c(-c3ccco3)sc3ncnc(OC(Cc4ccccc4OCc4ccnc(NCc5ccccc5)n4)C(=O)O)c23)ccc(OCCN2CCN(C)CC2)c1Cl (stereo not drawn) [Example 254]	-8.48
Cc1c(-c2c(-c3ccc(F)cc3)sc3ncnc(OC(Cc4ccccc4OCc4cnccn4)C(=O)O)c23)ccc(OC2CCCN(C)C2)c1Cl (single isomer, unassigned) [Example 142]	-7.38
Cc1c(-c2c(-c3ccc(F)cc3)sc3ncnc(OC(Cc4ccccc4OCc4ccnn4CC(F)(F)F)C(=O)O)c23)ccc(OCCN2CCN(C)CC2)c1Cl (stereo not drawn) [Example 77]	-8.23
